# System: PPARg:RXRa 90nM:30nM, anti-RXR (NR concentration 90 nM, RXRa partner concentration 30 nM)
# assay_name: PBM binding z-score (relative to random genomic background probes); higher = stronger binding; sequences stand for … in GC…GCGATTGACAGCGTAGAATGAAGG
Reported PBM binding z-score values are given for each entry in this list.
Number only, no unit.

[[record]]
entry_sequence = "TCTTGTAGATCAATAGAGGTCAAGAAAGTGCGCT"
observed = 3.18

[[record]]
entry_sequence = "ATCGAAAGGTCGAAGGGGAGTATACCCACCCGAA"
observed = 1.99

[[record]]
entry_sequence = "CATACTGGGCCACGAAAGGTCATTGATTCAGTGA"
observed = 3.84

[[record]]
entry_sequence = "ACAGACAGATGAGTGAAGGTAACTCAGCTGGACG"
observed = 0.0616

[[record]]
entry_sequence = "CGTCCAAGGCCAAGGTCAGTGAAAGAGACTCGAA"
observed = 0.665

[[record]]
entry_sequence = "ATCTCTAGGTAAAGATAGTTCAGTTAATGCAAAT"
observed = 0.659

[[record]]
entry_sequence = "ACTATTAGATGACTTAGGGCAACCGATACGACGC"
observed = 0.295

[[record]]
entry_sequence = "ATCTCTAGGTAACAGGTTCAGTGAAAGAGAGGAC"
observed = 2.78


Note: attention shifts to another entry.
### Prompt Dear colleague, I am looking for the recorded PBM binding z-score of the following sequence: CAAACTAGGTCACGAAAAGTCAAAGTCGAATGAC
### Response 7.51

---

# Test system: VDR:RXRa (NR concentration 270 nM, RXRa partner concentration 90 nM)
# assay_name: PBM binding z-score (relative to random genomic background probes); higher = stronger binding; sequences stand for … in GC…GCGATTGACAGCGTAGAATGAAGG
just bin them by PBM binding z-score: zone 1: < 0.7; zone 2: ≥ 0.7 and < 3; zone 3: ≥ 3

[[record]]
entry_sequence = "TCATATAGGTAATACACGTGAAAGTCGGCATCTA"
category = "zone 2"


### Prompt Assign a category based on measured PBM binding z-score for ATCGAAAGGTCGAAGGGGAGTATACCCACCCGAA and give only the class name.
### Response zone 2

### Prompt Would you kindly repeat that for CAAACTAGGTCACTGAGGTCAAAGTCCGTGCGTA ?
### Response zone 3

### Prompt Would you kindly repeat that for CCGACTGGGGCAGAGGTTACCATACTCAGTACGA ?
### Response zone 1

### Prompt Would you kindly repeat that for CCTCGGAGGACAACAGGAGGTCAGACCTGCCAGA ?
### Response zone 2

### Prompt Would you kindly repeat that for CCTAGTTGGTCAACGTCACACACGCTATAGGTAC ?
### Response zone 1

---

# System: PXR:RXRa (NR concentration 270 nM, RXRa partner concentration 90 nM)
# assay_name: PBM binding z-score (relative to random genomic background probes); higher = stronger binding; sequences stand for … in GC…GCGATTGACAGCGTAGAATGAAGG
observed_property: PBM binding z-score
Number only, no unit.

Worked cases, answers included:
[[record]]
entry_sequence = "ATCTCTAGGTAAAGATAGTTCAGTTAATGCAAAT"
observed_property = "PBM binding z-score"
observed = 1.26

[[record]]
entry_sequence = "TCTATTAGTTGAAGCGCAACCGACGAGTCCGTTT"
observed_property = "PBM binding z-score"
observed = 0.326

[[record]]
entry_sequence = "ACAGACAGGTGATGAAGGTAACTCAGGCTATCAT"
observed_property = "PBM binding z-score"
observed = -0.153

[[record]]
entry_sequence = "ATCTCTAGGTAAAAGTTCAGCGAATCCCGAGGAT"
observed_property = "PBM binding z-score"
observed = 2.46

[[record]]
entry_sequence = "AGACTGAGGTTATACGTAGATCAGGGAAGAAAGT"
observed_property = "PBM binding z-score"
observed = 1.09


Note: attention shifts to another entry.
### Prompt Dear colleague, I am looking for the recorded PBM binding z-score of the following sequence: AGTCAAAGTTCATCTAGGTAACGTGAGATATGCT
### Response 5.36
